assaySystem: T1, non-tagged, non-linked native human IL-23p19/p40 coexpressed in SF9 cells (eBioscience CAT No. 34-8239) (human, UniProt P29460 23-328)
T1 sequence 1: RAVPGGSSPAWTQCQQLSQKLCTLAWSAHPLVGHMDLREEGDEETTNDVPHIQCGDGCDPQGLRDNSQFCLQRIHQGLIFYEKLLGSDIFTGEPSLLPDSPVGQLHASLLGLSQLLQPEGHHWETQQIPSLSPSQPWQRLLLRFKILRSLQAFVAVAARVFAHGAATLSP
T1 sequence 2: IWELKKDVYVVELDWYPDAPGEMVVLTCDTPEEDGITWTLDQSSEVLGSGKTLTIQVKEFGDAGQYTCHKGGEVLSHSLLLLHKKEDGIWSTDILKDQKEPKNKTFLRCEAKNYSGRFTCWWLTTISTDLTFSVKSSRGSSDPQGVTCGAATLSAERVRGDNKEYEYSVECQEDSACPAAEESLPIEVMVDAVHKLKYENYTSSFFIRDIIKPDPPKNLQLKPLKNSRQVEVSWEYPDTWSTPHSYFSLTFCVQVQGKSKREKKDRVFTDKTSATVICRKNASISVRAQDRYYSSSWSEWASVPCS
assaySummary: cell-based or functional assay
quantity: IC50 for blocking of Ba/F3 cell proliferation (nM)
State just the number; it will be interpreted in nM.

Consider the reported IC50 for blocking of Ba/F3 cell proliferation for these binders:
[[record]]
binder = "mouse anti-human IL-23p19 antibody 35F12 (antibody, V domains shown) VH: QVQLQQPGAELMRPGASVRLSCKASGYSFTTSWMNWVKQRPGQGLEWIGMIHPSDSETRLNQNFKDKATLTVDRSSSTAYMQLNSPTSEDSAVYYCARGMITAPSVYWGQGTLVTVSA VL: DIVLTQSPASLAVSLGQRATISCRASKSVSTSAYSYFHWYQQKPGQPPKLLIYLASNLESGVPARFSGSGSGTDFTLNIHPVEEGDAATYYCQHSRELPWTFGGGTKLEITR"
valuereported = 12

[[record]]
binder = "humanized anti-human IL-23p19 antibody hum7G10 (antibody, human IgG1, kappa, V domains shown) VH: QVQLVQSGAEVKKPGASVKVSCKASGYTFTSNVMHWVRQAPGQGLEWMGYINPYNDGTKYNEKFKGRVTMTTDTSTSTAYMELRSLRSDDTAVYYCARNWDVAYWGQGTLVTVSS VL: DIQMTQSPSSLSASVGDRVTITCRASQSISDYLHWYQQKPGKAPKLLIYYASQSISGVPSRFSGSGSGTDFTLTISSLQPEDFATYYCQNGHSFPFTFGQGTKVEIKR"
valuereported = 7800

[[record]]
binder = "mouse anti-human IL-23p19 antibody 13B5 (antibody, V domains shown) VH: EVQLQQSGPELVKPGASVKMSCKASGYTFTRYLMHWVKQKPGQGLEWIGYINPYNDGTNYNEKFKGKATLTSDKSSSTAYMELSSLTSEDSAVYYCARNWDVGGYWGQGTTLTVSS VL: DIVMTQSPATLSVTPGDRVSLSCRASQSISDYLHWYQQKSHESPRLLIKYASQSISGIPSRFSGSGSGSDFTLSINSVEPEDVGVYYCQNGHSFPFTFGSGTKLEIKR"
valuereported = 31


For the next question, use this binder.
Query :: Find the recorded IC50 for blocking of Ba/F3 cell proliferation belonging to mouse anti-human IL-23p19 antibody 39G2 (antibody, V domains shown) VH: QVQLQQPGAELVRPGASVKLSCKASGYSFTSSWMNWVKQRPGQGLEWIGMIHPSDSETRTNQKFKDKATLTVDKSSSTAYMQLSSPTSEDSAVYYCARGMITAPTVYWGQGTLVTVSA VL: DIVLTQSPASLAVSLGQRATISCRASKSVSTSAYSYFHWYQQKPGQPPKLLIYLASNLESGVPARFSGSGSGTDFTLNIHPVEEEDAATYYCQHSRELPWTFGGGTKLEITP and report it.
Result :: 11
